System: ER transcriptional activity in T47D-KBluc cells
Assay: Luciferase transcriptional assay
Assay type: cell-based
Conditions: 24 h, ER transcription, luciferase reporter, 1 nM E2, 24 h treatment; ± SD of 3 biological replicates
# pIC50 per record follows
Field pIC50 (float): negative decimal logarithm of the concentration in molar.

Worked examples follow.
>>> measured_number("Cc1cccc(Oc2ccc(NC(=O)N3CCC(c4nnc[nH]4)C3)cn2)c1C (centres unmarked)")
4.76
>>> measured_number("CC1CC(NC(=O)Nc2ccc(Oc3cccc(F)c3F)nc2)C(=O)N1c1cnn(C)c1 (centres unmarked)")
4.91
>>> measured_number("O=C(NCc1ccc2occc2c1)Nc1ccc(OCC2CCCO2)cc1 (centres unmarked)")
4.57
>>> measured_number("Cc1cccn2c(CNCc3cccc(Br)c3)cnc12")
4.75
>>> measured_number("O=C(Nc1cccc(CNCc2cnc3ccccn23)c1)C1CCCO1 (centres unmarked)")
5.14

In the following, a different compound is considered.
Req: Request the reported pIC50 associated with `Cc1cccn2c(CNCc3cccc(N(C)C)n3)cnc12`
Resp: 5.24
